assay: Mean half-life in Swiss albino male mice at 1 mg/kg per compound (administered iv in a mixture of 5 compounds to 3 mice) assessed by LCMS/MS.; type: ADME, organism-based; conditions: mouse, in vivo
reportedEndpoint: half-life (h)
Provide the reading as a plain figure in h.

smilesRepresentation	reportedEndpoint	resultUnit	recordedMeasurement
COc1ccc(-c2c(C(C)C)nc3cnc(-c4ccc(F)c(C(F)(F)F)c4)cn23)cc1O	half-life	h	1.6
COc1ccc(-c2c(C(C)C)nc3cnc(-c4cccc(C(F)(F)F)c4)cn23)cc1OP(=O)(O)O	half-life	h	0.377
Fc1ccc(-c2cn3c(-c4ccc5[nH]ncc5c4F)c(C(F)(F)F)nc3cn2)cc1OC(F)(F)F	half-life	h	22.1

For the compound `CCc1nc2cnc(-c3cccc(C(F)(F)F)c3)cn2c1-c1ccc(O)cc1F` , what half-life is on record?
0.56

* * *

Parameter: pEC50. Scope: all listed entries.
system: Schistosoma mansoni; assay: Concentration required to kill 50% of 42 day old worms 5 days after drug treatment.; assay type: functional, organism-based; conditions: Puerto Rican, 120 h
Value format note: pEC50 is -log10 of concentration (mol/L); just state the number.

In the examples that follow, each entry is paired with its recorded pEC50.
compound	system	pEC50
Fc1c(-c2c(C(F)(F)F)nc3cnc(-c4cccc(OC(F)(F)F)c4)cn23)ccc2[nH]ncc12	Schistosoma mansoni	7.69
CC(C)Oc1cccc(-c2cn3c(-c4ccc5[nH]ncc5c4)cnc3cn2)c1	Schistosoma mansoni	5.14
Oc1cc(F)c(-c2cnc3cnc(-c4cccc(C(F)(F)F)c4)cn23)c(F)c1	Schistosoma mansoni	5.62

For the compound O=C(C1CCCCC1)N1CC(=O)N2CCc3ccccc3C2C1 (centres undefined) , what pEC50 is on record?
6.52

Same for `Fc1ccc(-c2cn3c(-c4ccc5[nH]ncc5c4F)c(C4CC4)nc3cn2)cc1C(F)(F)F`
7.29

Same for `CC(C)c1nn2cnc(-c3ccc(F)c(C(F)(F)F)c3)cc2c1-c1c(F)cc(O)cc1F`
7.66

Same for `C#CCOc1cc(-c2cn3c(-c4ccc5[nH]ncc5c4F)c(C(F)(F)F)nc3cn2)ccc1F`
7.98

* * *

experiment: Mean observed clearance in Swiss albino male mice at 1 mg/kg per compound (administered iv in a mixture of 5 compounds to 3 mice) assessed by LCMS/MS.; format: ADME, organism-based; conditions: male, Swiss albino, mouse, in vivo, read-out: Clearance (converted)
reportedEndpoint: clearance (mL/min/kg)
Provide the reading as a plain figure in mL/min/kg.

smilesRepresentation	clearance / mL/min/kg
Fc1c(-c2c(C(F)(F)F)nc3cnc(-c4cccc(C(F)(F)C(F)(F)F)c4)cn23)ccc2[nH]ncc12	1.43
CC(C)c1nc2cnc(-c3cccc(S(F)(F)(F)(F)F)c3)cn2c1-c1c(F)cc(O)cc1F	36.2
CC(C)c1nc2cnc(-c3ccc(F)c(C(F)(F)F)c3)cn2c1-c1c(F)cc(OP(=O)(O)O)cc1F	153
Fc1ccc(-c2cn3c(-c4ccc5[nH]ncc5c4F)c(C4CC4)nc3cn2)cc1C(F)(F)F	3.43
Cc1nc2cnc(-c3ccc(F)c(C(F)(F)F)c3)cn2c1-c1c(F)cc(OP(=O)(O)O)cc1F	75.3

Then there is this compound:
For the compound `Oc1ccc(-c2c(C(F)(F)F)nc3cnc(-c4cccc(C(F)(F)F)c4)cn23)c(F)c1` , what clearance is on record?
41.2

* * *

assay: Percentage of parent compound remaining after incubation for 90 minutes with cyropreserved mouse hepatocytes at a concentration of 1uM compound and […], determined by LCMS; type: ADME, tissue-based, Hepatocyte; settings: cryopreserved mouse hepatocytes, read-out: Stability
remaining at 1.5 h, 1 µM under 50% gets yes (1), anything at or over 50% gets no (0).

smilesRepresentation	className
CCc1nc2cnc(-c3ccc(F)c(C(F)(F)C(F)(F)F)c3)cn2c1-c1c(F)cc(O)cc1F	no (0)
CC(C)c1cc(-c2cn3c(-c4ccc5[nH]ncc5c4F)c(C4CCC4)nc3cn2)ccc1F	no (0)
Cc1nc2cnc(-c3cccc(C(F)(F)C(F)(F)F)c3)cn2c1-c1c(F)cc(O)cc1F	yes (1)

Query compound follows.
Given the entry `CC(C)c1nn2cnc(-c3ccc(F)c(C(F)(F)F)c3)cc2c1-c1c(F)cc(O)cc1F` , would its reported remaining at 1.5 h, 1 µM be below 50%?
yes (1)

* * *

assay: Percentage of parent compound remaining after incubation for 30 minutes with cyropreserved mouse hepatocytes at a concentration of 1uM compound and […], determined by LCMS; format: ADME, tissue-based, Hepatocyte; settings: cryopreserved mouse hepatocytes, read-out: Stability
Parameter: remaining at 0.5 h, 1 µM. Scope: all listed entries.
Number first, unit second: that is the form wanted.

smilesRepresentation	remaining at 0.5 h, 1 µM
COc1cc(-c2c(C(C)C)nc3cnc(-c4cccc(C(F)(F)F)c4)cn23)cc2cn[nH]c12	68%
COc1ccc(-c2c(C(C)C)nc3cnc(-c4ccnc(N(C)C)c4)cn23)cc1O	31.9%
COc1ccc(-c2c(C)nc3ccc(-c4cccc(C(F)(F)F)c4)cn23)cc1O	43%
Cc1nc2cnc(-c3ccc(F)c(C(F)(F)F)c3)cn2c1-c1c(F)cc(O)cc1F	53.6%
Fc1ccc(-c2cn3c(-c4ccc5[nH]ncc5c4F)c(C4CC4)nc3cn2)cc1C(F)(F)F	81.9%

Then there is this compound:
For the compound `Cc1nc2cnc(-c3ccc(F)c(C(F)(F)F)c3)cn2c1-c1ccc(O)cc1F` , what remaining at 0.5 h, 1 µM is on record?
64.1%

* * *

assay: Mean oral bioavailability in Swiss albino male mice at […] per compound (administered in a mixture of 5 compounds to 3 mice) assessed by LCMS/MS.; further: dose 2.5 mg/kg; format: ADME, organism-based; settings: male, Swiss albino, mouse, in vivo, read-out: Bioavailability
Parameter: bioavailability. Scope: all listed entries.
Provide the reading as a plain figure in %.

In the examples that follow, each entry is paired with its recorded bioavailability.
smilesRepresentation	bioavailability / %
CC(C)c1nn2cnc(-c3cccc(C(F)(F)F)c3)cc2c1-c1c(F)cc(O)cc1F	14.5
Fc1ccc(-c2cn3c(-c4ccc5[nH]ncc5c4)c(C(F)(F)F)nc3cn2)cc1C(F)(F)F	91.3
CC(C)c1nc2cnc(-c3ccc(F)c(S(F)(F)(F)(F)F)c3)cn2c1-c1ccc2[nH]ncc2c1F	83.3
COc1cc(-c2c(C(C)C)nc3cnc(-c4cccc(C(F)(F)F)c4)cn23)cc2cn[nH]c12	84.8
CCc1nc2cnc(-c3ccc(F)c(C(F)(F)C(F)(F)F)c3)cn2c1-c1c(F)cc(O)cc1F	83.2
Fc1ccc(-c2cn3c(-c4ccc5[nH]ncc5c4F)c(C4CC4)nc3cn2)cc1C(F)(F)F	95.8
Oc1ccc(-c2cnn3ccc(-c4cccc(C(F)(F)F)c4)cc23)c(F)c1	0
Cc1nc2cnc(-c3ccc(F)c(C(F)(F)F)c3)cn2c1-c1ccc(O)cc1F	13.5

For the molecule `Oc1cc(F)c(-c2c(C3CC3)nc3cnc(-c4ccc(F)c(C(F)(F)F)c4)cn23)c(F)c1` , what bioavailability is on record?
69.6

* * *

assay: Plasma protein binding determined at 1uM by LC-MS/MS.; type: ADME, cell-free; details: mouse
reportedEndpoint: Binding
Number first, unit second: that is the form wanted.

In the examples that follow, each entry is paired with its recorded Binding.
smilesRepresentation	reportedEndpoint	recordedMeasurement
Cc1nc2cnc(-c3ccc(F)c(C(F)(F)F)c3)cn2c1-c1c(F)cc(O)cc1F	Binding	99.8779%
COc1ccc(-c2c(C(C)C)nc3cnc(-c4cccc(C(F)(F)F)c4)cn23)cc1O	Binding	100%
Oc1ccc(-c2cnc3cnc(-c4cccc(C(F)(F)F)c4)cn23)c(F)c1	Binding	99.76%

For the molecule `Oc1ccc(-c2c(C(F)(F)F)nc3cnc(-c4cccc(C(F)(F)F)c4)cn23)c(F)c1` , what Binding is on record?
100%

Same for `COc1cc(-c2c(C(C)C)nc3cnc(-c4cccc(C(F)(F)F)c4)cn23)cc2cn[nH]c12`
100%

* * *

Parameter: concentration at 4 h. Scope: all listed entries.
assay: Concentration of drug in plasma at 4h following oral drug adminstration at given dose. Determined by LCMS/MS; format: ADME, organism-based; conditions: CD1, mouse

smilesRepresentation	concentration at 4 h
CC(C)c1nc2cnc(-c3ccc(F)c(C(F)(F)F)c3)cn2c1-c1c(F)cc(O)cc1F	4.14 µg/mL
CCc1nc2cnc(-c3ccc(F)c(C(F)(F)C(F)(F)F)c3)cn2c1-c1c(F)cc(O)cc1F	0.104 µg/mL

Then there is this compound:
For the compound `CCc1nc2cnc(-c3ccc(F)c(C(F)(F)F)c3)cn2c1-c1ccc2[nH]ncc2c1F` , what concentration at 4 h is on record?
0.705 µg/mL

* * *

assay: Mean plasma concentration at 4h in Swiss albino male mice at […] per compound (administered orally in a mixture of 5 compounds to 3 mice) assessed by LCMS/MS.; type: ADME, organism-based; conditions: mouse, po
concentration at 4 h under 200 ng/mL gets T, anything at or over 200 ng/mL gets F.

Example entries and their recorded answers appear below.
smilesRepresentation	className
COc1ccc(-c2c(C)nn3cnc(-c4cccc(C(F)(F)F)c4)cc23)cc1O	T
CCc1nc2cnc(-c3cccc(C(F)(F)F)c3)cn2c1-c1ccc(O)cc1F	T
CC(C)c1nn2cnc(-c3ccc(F)c(C(F)(F)F)c3)cc2c1-c1ccc2[nH]ncc2c1F	F

Given the entry `Fc1ccc(-c2cn3c(-c4ccc5[nH]ncc5c4F)c(C(F)(F)F)nc3cn2)cc1C(F)(F)F` , would its reported concentration at 4 h be below 200 ng/mL?
F

Same for `Fc1c(-c2c(C(F)(F)F)nc3cnc(-c4cccc(OC(F)(F)F)c4)cn23)ccc2[nH]ncc12`
T
